system: MCF10A normal breast epithelial cells; assay: Cell growth inhibition (CCK8 cytotoxicity assay), MCF10A; format: cell-based; conditions: Homo sapiens, MCF-10A, 48 h treatment, read-out: Average EC50 ± SD, cell growth inhibition
ATTRIBUTE MEASURED: EC50 (µM)

{"MOLECULE": "O=C(CCCCCCC(=O)Nc1ccccc1)NO [SAHA, reference compound]", "READING": 10.1}

* * *

target: HDAC4 (Homo sapiens, UniProt P56524)
Sequence (P56524 whole entry, species assumed): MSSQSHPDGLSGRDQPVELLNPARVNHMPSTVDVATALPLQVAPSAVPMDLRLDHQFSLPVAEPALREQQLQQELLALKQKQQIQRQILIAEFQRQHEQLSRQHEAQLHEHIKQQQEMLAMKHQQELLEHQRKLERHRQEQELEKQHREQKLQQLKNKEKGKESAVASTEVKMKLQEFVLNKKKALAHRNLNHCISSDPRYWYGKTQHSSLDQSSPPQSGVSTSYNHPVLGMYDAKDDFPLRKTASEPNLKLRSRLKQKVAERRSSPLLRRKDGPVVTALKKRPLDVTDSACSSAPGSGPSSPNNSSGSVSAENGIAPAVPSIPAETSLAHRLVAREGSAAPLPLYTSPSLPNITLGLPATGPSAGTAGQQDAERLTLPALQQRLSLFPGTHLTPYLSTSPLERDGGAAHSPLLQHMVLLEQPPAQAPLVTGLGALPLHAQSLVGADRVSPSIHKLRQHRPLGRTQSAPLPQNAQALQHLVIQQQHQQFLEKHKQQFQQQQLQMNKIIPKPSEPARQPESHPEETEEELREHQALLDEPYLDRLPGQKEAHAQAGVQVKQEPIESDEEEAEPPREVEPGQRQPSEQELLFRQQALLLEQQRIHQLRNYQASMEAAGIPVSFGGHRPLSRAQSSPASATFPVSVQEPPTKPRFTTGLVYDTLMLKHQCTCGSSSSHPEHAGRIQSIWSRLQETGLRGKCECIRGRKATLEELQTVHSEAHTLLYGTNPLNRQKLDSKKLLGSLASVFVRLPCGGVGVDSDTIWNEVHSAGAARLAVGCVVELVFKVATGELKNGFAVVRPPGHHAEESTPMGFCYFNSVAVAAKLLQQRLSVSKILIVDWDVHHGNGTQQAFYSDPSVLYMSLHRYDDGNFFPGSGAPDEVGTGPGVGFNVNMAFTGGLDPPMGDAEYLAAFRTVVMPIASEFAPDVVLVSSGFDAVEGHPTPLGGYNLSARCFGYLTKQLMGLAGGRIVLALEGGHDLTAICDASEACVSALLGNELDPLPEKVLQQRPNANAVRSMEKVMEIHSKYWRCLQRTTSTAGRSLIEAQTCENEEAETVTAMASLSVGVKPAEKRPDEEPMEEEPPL
pIC50: −log10 of the molar value.

{"COMPOUND": "Cc1[nH]c2ccccc2c1C1=C(c2c(C)[nH]c3ccccc23)C(=O)N(CCCCCCC(=O)NO)C1=O [SP-1-303]", "pIC50": "< 4.70"}
